- assaySystem: ATP-dependent Clp protease proteolytic subunit (Escherichia coli (strain K12))
- assayMethodText: Inhibition of Escherichia coli C-terminal His6-tagged ClpP expressed Escherichia coli SG1146a at 200 uM using Suc-LY-AMC as substrate preincubated for 10 mins followed by substrate addition and measured over 1 hr by fluorescence assay relative to control
reportedProperty: inhibition (%)
Please respond with the number in % and leave the unit unwritten.

Nc1cccc(C(NC(=O)OCc2ccc3c(c2)OCO3)P(=O)(Oc2ccccc2)Oc2ccccc2)c1 (stereo not drawn)    20
Nc1ccc(C(NC(=O)OCc2ccccc2)P(=O)(Oc2ccccc2)Oc2ccccc2)cc1 (stereo not drawn)    96
COC(=O)NC(c1ccc(NC(=O)C(F)(F)F)cc1)P(=O)(Oc1ccccc1)Oc1ccccc1 (stereo not drawn)    64
CC(=O)Nc1ccc(C(NC(=O)OCc2ccccc2)P(=O)(Oc2ccccc2)Oc2ccccc2)cc1 (stereo not drawn)    8
N=C(N)N1CC(C(NC(=O)OCc2ccccc2)P(=O)(Oc2ccccc2)Oc2ccccc2)C1 (stereo not drawn)    100

## Input What value of inhibition has been reported for the following compound? N=C(N)Nc1ccc(C(NS(=O)(=O)c2ccc(C(F)(F)F)cc2)P(=O)(Oc2ccccc2)Oc2ccccc2)cc1 (stereo not drawn)
## Output 27

## Input Given the compound NCCOC(=O)NC(c1ccc(NC(=O)C(F)(F)F)cc1)P(=O)(Oc1ccccc1)Oc1ccccc1 (stereo not drawn) , what is its reported inhibition?
## Output 73

## Input Request the reported inhibition associated with O=C(NC(c1ccc2ccccc2c1)P(=O)(Oc1ccccc1)Oc1ccccc1)OCc1ccccc1 (stereo not drawn)
## Output 51

====

- assaySystem: ATP-dependent Clp protease proteolytic subunit (Escherichia coli (strain K12))
- assayMethodText: Inhibition of Escherichia coli C-terminal His6-tagged ClpP expressed Escherichia coli SG1146a at 200 uM using Suc-LY-AMC as substrate preincubated for 10 mins followed by substrate addition and measured over 1 hr by fluorescence assay relative to control
Classification field: enter class 1 for inhibition values not below 70%, class 0 for values below it.

## Input Quick check, inhibition >= 70%? COC(=O)NC(c1ccc(C(=N)N)cc1)P(=O)(Oc1ccccc1)Oc1ccccc1 (stereo not given)
## Output class 1

## Input Can N=C(N)c1ccc(C(NC(=O)OCc2ccccc2)P(=O)(Oc2ccccc2)Oc2ccccc2)cc1 (stereo not given) be said to have inhibition at or above 70%?
## Output class 0

## Input Confirm if inhibition reported for the compound N=C(N)N1CCC(C(NC(=O)C#Cc2ccc3c(c2)OCO3)P(=O)(Oc2ccccc2)Oc2ccccc2)CC1 (stereo not given) is 70% or above.
## Output class 0

## Input Quick check, inhibition >= 70%? Cc1ccc(CC(NC(=O)OCc2ccccc2)P(=O)(Oc2ccccc2)Oc2ccccc2)cc1 (stereo not given)
## Output class 0

====

- assaySystem: ATP-dependent Clp protease proteolytic subunit (Escherichia coli (strain K12)) (UniProt P0A6G7)
- Sequence (P0A6G7 whole entry): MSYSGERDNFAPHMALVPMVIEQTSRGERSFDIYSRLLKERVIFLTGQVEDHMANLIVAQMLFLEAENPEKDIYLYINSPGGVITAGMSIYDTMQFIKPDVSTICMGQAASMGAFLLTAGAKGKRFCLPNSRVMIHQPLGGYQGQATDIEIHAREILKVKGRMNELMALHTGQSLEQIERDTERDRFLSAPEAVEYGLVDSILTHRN
- assayMethodText: Inhibition of Escherichia coli C-terminal His6-tagged ClpP expressed Escherichia coli SG1146a at 200 uM using Suc-LY-AMC as substrate preincubated for 10 mins followed by substrate addition and measured over 1 hr by fluorescence assay relative to control
Assign criterion met whenever inhibition does not fall below 30%; assign criterion not met whenever it does.

Known results for compounds:
Nc1cccc(C(NC(=O)OCc2ccccc2)P(=O)(Oc2ccccc2)Oc2ccccc2)c1 (centres undefined)    criterion met
COC(=O)NC(Cc1cccc(C(F)(F)F)c1)P(=O)(Oc1ccccc1)Oc1ccccc1 (centres undefined)    criterion not met
N#C[C@H](Cc1ccccc1)NC(=O)OCc1ccccc1    criterion not met
N=C(N)Nc1ccc(C(NC(=O)OCc2c(F)c(F)c(F)c(F)c2F)P(=O)(Oc2ccccc2)Oc2ccccc2)cc1 (centres undefined)    criterion met

## Input Could you please find out whether Nc1ccc(C(NC(=O)OCCOc2ccccc2)P(=O)(Oc2ccccc2)Oc2ccccc2)cc1 (centres undefined) has inhibition that meets 30% or exceeds it?
## Output criterion not met

## Input Decide: inhibition of COC(=O)NC(Cc1ccc(C(F)(F)F)cc1)P(=O)(Oc1ccc(NC(C)=O)cc1)Oc1ccc(NC(C)=O)cc1 (centres undefined) >= 30%?
## Output criterion not met

## Input Dear colleague, could you confirm whether N=C(N)N1CC(C(Nc2ncccn2)P(=O)(Oc2ccccc2)Oc2ccccc2)C1 (centres undefined) has inhibition at or above 30%?
## Output criterion not met
